Recorded Plant response rating (scale of 0 to 100), Blackgrass, one value per entry.
# System: blackgrass (Alopecurus myosuroides)
# procedure.summary: Test C postemergence
# Type: in vivo
# details: 62 g ai/ha

Known results for molecules:
> print(dat)
                                   molecule  reading
1  COC(=O)c1nc(-c2ccc(Br)cc2)nc(N)c1Br [Compound 129]       50
2  Nc1nc(-c2ccc(Cl)cc2)nc(C(=O)O)c1Cl [Compound 65]       65
3  CNc1nc(C2CC2)nc(C(=O)OC)c1Cl [Compound 79]       60

Switching to the query record.
Observed Plant response rating (scale of 0 to 100), Blackgrass on blackgrass (Alopecurus myosuroides), entry Nc1nc(-c2ccc(Br)cc2)nc(C(=O)O)c1Br [Compound 136] , equals 65

----------
Recorded pest or weed control at 500 g/ha, one value per entry.
# Tested on: morningglory (Ipomoea coccinea)
# procedure.summary: Test B pre/postemergence
# Assay type: in vivo
# details: Ipomoea, post-emergence, Postemergence, 500 g ai/ha; scale 0 to 100; read-out: Plant response rating, Morningglory
Use % as the unit, but write only the number.

Known results for compounds:
> print(dat)
                   structure.smiles                           target  reading.unit  reading
1        COC(=O)c1nc(C2CC2)nc(N)c1I  morningglory (Ipomoea coccinea)             %       90
2            Nc1nc(C2CC2)nc(C=O)c1F  morningglory (Ipomoea coccinea)             %       90
3        COC(=O)c1nc(C2CC2)nc(N)c1F  morningglory (Ipomoea coccinea)             %       90
4  CCOC(=O)c1nc(-c2ccccc2)nc(N)c1Br  morningglory (Ipomoea coccinea)             %       70

Switching to the query record.
Looking up `COC(=O)c1nc(C2CC2)nc(NO)c1Br` , I see its pest or weed control at 500 g/ha listed as 100

----------
# System: common chickweed (Stellaria media)
# procedure.summary: Test D pre/postemergence
# Type: in vivo
# details: Postemergence, 125 g ai/ha, scale 0 to 100 (100 = complete control)
Recorded Plant response rating, Chickweed, one value per entry.
Field format: numeric only.

Known results for compounds:
> print(dat)
                                   compound  reading
1      CCOC(=O)Cc1nc(C2CC2)nc(N=CN(C)C)c1Br       50
2  COC(=O)c1nc(C2CC2C)nc(N)c1Br (centres unmarked)       65
3              CCOC(=O)c1nc(C2CC2)nc(N)c1Br       85
4  CCOC(=O)C(OC(C)=O)c1nc(C2CC2)nc(N)c1Br (centres unmarked)       65

Switching to the query record.
Looking up `COC(=O)c1nc(C2CC2)nc(NO)c1Br` , I see its Plant response rating, Chickweed listed as 80

----------
# Test system: pigweed (Amaranthus retroflexus)
# procedure.summary: Test C pre/postemergence
# Format: in vivo
# details: Preemergence, 500 g ai/ha; scale 0 to 100
Recorded Plant response rating, Pigweed, one value per entry.

Known results for compounds:
> print(dat)
                               compound  reading
1   CCOC(=O)c1nc(C2CC2)nc(N=CN(C)C)c1Br      100
2   COC(=O)CNc1nc(C2CC2)nc(C(=O)OC)c1Br       85
3  CCOC(=O)Cc1nc(C2CC2)nc(N=CN(C)C)c1Br       90
4             CNN=Cc1nc(C2CC2)nc(N)c1Br      100

Switching to the query record.
Observed Plant response rating, Pigweed on pigweed (Amaranthus retroflexus), entry COC(=O)c1nc(C2CC2C)nc(N)c1Br (centres unmarked) , equals 100
